System: OVCAR-4
TEST DESCRIPTION: NCI tumour cell line growth inhibition, 48 h
Active and inactive are the calls of the source. No stated cut-off is given here; in the data, active = GI50 up to about 1.1 µM and inactive = higher.
REPORTED PROPERTY: GI50

[[record]]
molecule = "N#C/C(=C1\\OC(=N)C(c2ccccc2)C1=O)c1ccccc1 (stereo not given)"
recorded_measurement = "40.1 µM (inactive)"

[[record]]
molecule = "COc1ccc2c(c1)CC1(O)COc3cc(OC)ccc3C1O2 (stereo not given)"
recorded_measurement = "63.7 µM (inactive)"

[[record]]
molecule = "COc1cc(C2C(Cl)C(=O)N2NC(=O)c2ccc(NC(C)=O)cc2OC)ccc1O (stereo not given)"
recorded_measurement = "39.1 µM (inactive)"

[[record]]
molecule = "O=S(=O)(O)c1ccc(-c2c3nc(c(-c4ccc(S(=O)(=O)O)cc4)c4ccc([nH]4)c(-c4ccc(S(=O)(=O)O)cc4)c4nc(c(-c5ccc(S(=O)(=O)O)cc5)c5ccc2[nH]5)C=C4)C=C3)cc1"
recorded_measurement = "29 µM (inactive)"

[[record]]
molecule = "C[C@H]1C[C@@H]2[C@H]([C@@H](O)C[C@@]3(C)[C@H]2CC[C@]3(O)C(=O)CO)[C@@]2(C)C=CC(=O)C=C12 [METHYLPREDNISOLONE]"
recorded_measurement = "> 100 µM (inactive)"


====

System: Hs-578T
TEST DESCRIPTION: NCI tumour cell line growth inhibition, 48 h
Counter-ions that a name gives are not always drawn. Active and inactive are the calls of the source. Cut-off read from the data, not from the text of the source: active = GI50 up to about 1.1 µM and inactive = higher.
REPORTED PROPERTY: GI50

[[record]]
compound = "COc1ccc2nccc(/C=C/c3ccc(N(C)C)cc3)c2c1"
recorded_measurement = "> 10 µM (inactive)"

[[record]]
compound = "CN(C)CCNC(=O)Cn1ccc(=O)c2ccc([N+](=O)[O-])cc21"
recorded_measurement = "> 100 µM (inactive)"

[[record]]
compound = "NC(CCOCCP(=O)(O)O)C(=O)O (centres undefined)"
recorded_measurement = "> 100 µM (inactive)"

[[record]]
compound = "CN1C[C@H](C(=O)N[C@]2(C)O[C@@]3(O)[C@@H]4CCCN4C(=O)[C@H](Cc4ccccc4)N3C2=O)C=C2c3cccc4[nH]cc(c34)C[C@H]21 [ERGOTAMINE TARTRATE]"
recorded_measurement = "10.2 µM (inactive)"

[[record]]
compound = "Cc1ccc(S(=O)(=O)NC2C(=O)c3ccccc3C(=O)C2n2cnc3ccccc32)cc1 (centres undefined)"
recorded_measurement = "51.6 µM (inactive)"

[[record]]
compound = "CCC(CCN)(CCN)[N+](=O)[O-]"
recorded_measurement = "> 100 µM (inactive)"

[[record]]
compound = "O=C(CC(=O)N(C(=O)c1ccccc1)c1ccc(Cl)cc1)N/N=C\\c1ccccc1O"
recorded_measurement = "26 µM (inactive)"

[[record]]
compound = "CCSCC(N)C(=O)O (centres undefined)"
recorded_measurement = "> 100 µM (inactive)"

[[record]]
compound = "C=C(C)C(=O)N1c2ccc(OC)cc2CC1C(=O)OCC (centres undefined)"
recorded_measurement = "> 100 µM (inactive)"

[[record]]
compound = "Cc1ccc2c(n1)C(=O)C=CC2=O"
recorded_measurement = "30.8 µM (inactive)"

[[record]]
compound = "O=C(c1ccccc1)N1C(=O)N(c2ccccc2)C(=N/c2ccccc2)/C1=N\\c1ccccc1"
recorded_measurement = "20.3 µM (inactive)"

[[record]]
compound = "Cc1c2cccc-2c(OCCO)cc2c3ccccc3n(C)c12"
recorded_measurement = "2.6 µM (inactive)"

[[record]]
compound = "COc1cccc(/C=C2\\N=C(c3ccccc3)OC2=O)c1"
recorded_measurement = "22.5 µM (inactive)"

[[record]]
compound = "C=C1C(=O)C23CC1CCC2C12CO[C@H](O)[C@H]1C(C)(C)[C@H](OC(C)=O)C[C@H]2OC3=O (some centres undefined)"
recorded_measurement = "34.4 µM (inactive)"

[[record]]
compound = "O=c1[nH]c(=O)n(CCOc2ccc(Cl)cc2)cc1Nc1ccccc1"
recorded_measurement = "29.2 µM (inactive)"

[[record]]
compound = "Cc1ccc(CC2(OCCN(C)C)CCC(C(C)(C)C)CC2)cc1 (centres undefined)"
recorded_measurement = "8.04 µM (inactive)"

[[record]]
compound = "O=C(O)C1(C(=O)O)CC1(C(=O)O)C(=O)O"
recorded_measurement = "> 100 µM (inactive)"

[[record]]
compound = "CCOP(=O)(OCC)/C(=C/c1cccs1)CC(C)=O"
recorded_measurement = "> 100 µM (inactive)"

[[record]]
compound = "CCOC(=O)/C(C(N)=O)=C(/O)c1cnccn1"
recorded_measurement = "> 100 µM (inactive)"

[[record]]
compound = "c1ccc(CNCCCNCCCCNCCCNCc2ccccc2)cc1"
recorded_measurement = "1.91 µM (inactive)"

[[record]]
compound = "CCOc1ccccc1/N=N/C1C(=O)N(C(=O)CC(=O)Nc2ccccc2OC)N=C1C (centres undefined)"
recorded_measurement = "1.78 µM (inactive)"

[[record]]
compound = "COCOC1C=CCCCC2=CC(C)=C(CC1)O2 (centres undefined)"
recorded_measurement = "> 100 µM (inactive)"

[[record]]
compound = "COc1ccc(N2C(=O)CS(=O)(=O)C2c2cccc(Oc3ccccc3)c2)cc1 (centres undefined)"
recorded_measurement = "3.78 µM (inactive)"

[[record]]
compound = "COc1ccc(C2C(=O)c3c(OC)cc(OC)cc3OC2c2cccnc2)cc1 (centres undefined)"
recorded_measurement = "> 100 µM (inactive)"

[[record]]
compound = "O=C(O)c1ccccc1C(=O)c1ccc2c(c1)Cc1ccccc1-2"
recorded_measurement = "> 100 µM (inactive)"

[[record]]
compound = "OC(c1ccc(Cl)cc1)(c1ccc(Cl)cc1)c1cncnc1"
recorded_measurement = "25.3 µM (inactive)"

[[record]]
compound = "O=C1c2cc3c(cc2CC12Cc1cc4c(cc1C2=O)CCC4)CCCC3 (centres undefined)"
recorded_measurement = "> 100 µM (inactive)"

[[record]]
compound = "O=C1/C(=C\\c2ccco2)Oc2ccccc21"
recorded_measurement = "> 100 µM (inactive)"

[[record]]
compound = "Cc1ccc(/N=c2/oc3c(ccc4ccccc43)nc2Nc2ccc(C)cc2)cc1"
recorded_measurement = "> 100 µM (inactive)"

[[record]]
compound = "CC(=O)N(O)CCCCCNC(=O)CCC(=O)N(O)CCCCCNC(=O)CCC(=O)N(O)CCCCCN [DEFEROXAMINE HYDROCHLORIDE]"
recorded_measurement = "> 100 µM (inactive)"

[[record]]
compound = "O=C1C=C2S[C@H]3C[C@]2(C=C1Br)C1=C(N3)C(=O)c2[nH]cc3c2C1=NCC3 [(+)-DISCORHABDIN B]"
recorded_measurement = "1.5 µM (inactive)"

[[record]]
compound = "Nc1nc2c(c(=O)[nH]1)C(c1ccccc1)CC(=O)N2 (centres undefined)"
recorded_measurement = "> 100 µM (inactive)"

[[record]]
compound = "O[C@@H]1C[C@H](Cl)c2c(Cl)sc(Cl)c21"
recorded_measurement = "> 100 µM (inactive)"

[[record]]
compound = "Cc1ccc2c(c1)S(=O)(=O)c1ccc3ccccc3c1N2"
recorded_measurement = "> 100 µM (inactive)"

[[record]]
compound = "O=c1c2ccccc2n2nnc3ccc(NCCCNCCNCCCNc4ccc5nnn6c7ccccc7c(=O)c4c56)c1c32"
recorded_measurement = "5.52 µM (inactive)"

[[record]]
compound = "CSc1nc(C)cc(Nc2ccc(O)c(CN3CCOCC3)c2)n1"
recorded_measurement = "> 100 µM (inactive)"

[[record]]
compound = "OCCN1CN(c2nc(N3CN(CCO)C3)nc(N3CN(CCO)C3)n2)C1"
recorded_measurement = "35.2 µM (inactive)"

[[record]]
compound = "O=C1CC(c2n[nH]c3ccccc23)C(=O)N1c1ccccc1 (centres undefined)"
recorded_measurement = "> 100 µM (inactive)"

[[record]]
compound = "O=c1[nH]nc(Nc2ccccc2)c2nnn(Cc3ccccc3)c12"
recorded_measurement = "17.6 µM (inactive)"

[[record]]
compound = "CC(C)CN(CC#N)CC(C)C"
recorded_measurement = "> 100 µM (inactive)"

[[record]]
compound = "Clc1cc2nnn(C3CCCO3)c2cc1Cl (centres undefined)"
recorded_measurement = "62.7 µM (inactive)"

[[record]]
compound = "CC(C)(C)/C(O)=C\\c1nc2ccc(C(F)(F)F)cc2[nH]c1=O"
recorded_measurement = "> 100 µM (inactive)"

[[record]]
compound = "Cc1ccc(Nc2nc3[nH]ccc3c(=O)[nH]2)cc1"
recorded_measurement = "35.8 µM (inactive)"

[[record]]
compound = "N/N=C(\\N)SCCCCCCCCCCS/C(N)=N/N"
recorded_measurement = "30.8 µM (inactive)"

